Where do the numbers come from? From the RNAGym collection of RNA variant scans (doi:10.1073/pnas.2313332121).

B1: TPR 5TU (parent)
chain: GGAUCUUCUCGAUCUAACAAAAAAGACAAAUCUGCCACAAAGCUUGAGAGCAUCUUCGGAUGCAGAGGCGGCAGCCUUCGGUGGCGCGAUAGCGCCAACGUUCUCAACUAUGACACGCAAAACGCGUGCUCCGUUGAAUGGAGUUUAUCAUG

# Variants of: B1
# Experiment summary: polymerase ribozyme fitness, log enrichment relative to wild type (log ratio); higher = more active; in vitro selection for triplet polymerase activity
This sample holds only a part of the variants without activity.
Kindly state polymerase ribozyme fitness (log ratio) for each of the entries shown.

Note to self: polymerase ribozyme fitness (log ratio) recorded for C10U G42C A49C A66G C79G A91G C125A A147G A150C was ≤ -4.2

For A17G U101A C105G the variant record lists polymerase ribozyme fitness (log ratio) as -3.18

Record A23G A40C G141C . Reported polymerase ribozyme fitness (log ratio): -3.82

# polymerase ribozyme fitness (log ratio) of C18G G84C G126U = -2.27

polymerase ribozyme fitness (log ratio) in this record for C27U C72U G88A G94A G152A : -4.19

Reported polymerase ribozyme fitness (log ratio) of A16U A20C A41U C87G A98G : ≤ -4.2

For reference, reported polymerase ribozyme fitness (log ratio) for A3U A49G G50A C96U G141A stands at -3.63

Lookup result for U4G U56G U144A ; measured polymerase ribozyme fitness (log ratio): -1.19

GET /value?item= A23U U33A U45A G46A C96U &field=polymerase ribozyme fitness (log ratio) returns -4.15

# polymerase ribozyme fitness (log ratio) of A66C C103G C108A G117A = ≤ -4.2

The variant listed as G58U A60G A137C shows polymerase ribozyme fitness (log ratio) equal to ≤ -4.2

Reported polymerase ribozyme fitness (log ratio) ( C35G G50C U56A A64U G133C U148G ) = ≤ -4.2

# polymerase ribozyme fitness (log ratio) (variant: C51A G136A ) is -0.23

Summary for this variant, `A21U` : polymerase ribozyme fitness (log ratio) is 0.554

Form: variant = U55G G94A ; polymerase ribozyme fitness (log ratio) = -1.43

Entry A23G A52U C118A A122U — recorded polymerase ribozyme fitness (log ratio) = ≤ -4.2

Value of measured polymerase ribozyme fitness (log ratio) for the entry A52G G83U C96A U101C G124A U145A C149U : -2.95

Input A3G C43U G65U G68A G71A G86U G112U G152A . Output polymerase ribozyme fitness (log ratio): ≤ -4.2

Entry U7G C27A C93U A107G A150U , polymerase ribozyme fitness (log ratio) reported as ≤ -4.2

Given item C14G U55A G92U , the value recorded as its polymerase ribozyme fitness (log ratio) is -2.92

polymerase ribozyme fitness (log ratio) in this record for A19G A23U C38U G42U G68A U82A : ≤ -4.2

Measured polymerase ribozyme fitness (log ratio), A12G G42A G62A U101C C105G U134G : ≤ -4.2

Item: U13G A24U A37G U134C | polymerase ribozyme fitness (log ratio): -4.14

The recorded polymerase ribozyme fitness (log ratio) for entry U53A U82G G100A equals ≤ -4.2

Form field polymerase ribozyme fitness (log ratio), entry C8G C43G A52G C93G C114G A121G : ≤ -4.2

variant C125U U146G , polymerase ribozyme fitness (log ratio) observed: -1.15

variant U4A A16G A37U A91G G124U , polymerase ribozyme fitness (log ratio) observed: ≤ -4.2

// polymerase ribozyme fitness (log ratio) value for G42A G58C C79A C118U A142U : ≤ -4.2

Reported polymerase ribozyme fitness (log ratio) ( C32A G67A G83A ) = ≤ -4.2

Reported polymerase ribozyme fitness (log ratio) for A20C C27U C87U G92A U101A was -1.49

// polymerase ribozyme fitness (log ratio) value for G59C A138G : -3.04

Memo: A16C A17G C76G C96A A107G , reported polymerase ribozyme fitness (log ratio): ≤ -4.2

The value of polymerase ribozyme fitness (log ratio) measured for the variant A21U A64C U145G turned out to be ≤ -4.2

U31A C43U U44G G62A G71A U90G A91C yielded polymerase ribozyme fitness (log ratio) of ≤ -4.2

Lab note: C10G A29U G34U C38A C87G G88A A122U G136C gave polymerase ribozyme fitness (log ratio) of ≤ -4.2

For this variant ( U53G A64U C69U C76U A98U C108A ), measured polymerase ribozyme fitness (log ratio) is ≤ -4.2

// C51U G141A : polymerase ribozyme fitness (log ratio) value = 0.523

// recorded polymerase ribozyme fitness (log ratio) for C72G G83A G100A : ≤ -4.2

variant `U102C` , polymerase ribozyme fitness (log ratio) observed: -0.787

Looking up U82A C93U U145G , I see its polymerase ribozyme fitness (log ratio) listed as -2.53

# variant U15A C75G C108U ; its polymerase ribozyme fitness (log ratio) = -4.16

What the record says about A28U C87G U127A G133C U139A : polymerase ribozyme fitness (log ratio) is -4.15

// U4A G92U : polymerase ribozyme fitness (log ratio) value = -0.358

Form: variant = U6G A47U U61G C69A ; polymerase ribozyme fitness (log ratio) = ≤ -4.2

Notebook: G88A C96G , polymerase ribozyme fitness (log ratio) read as -3.74

The reported polymerase ribozyme fitness (log ratio) of the variant C35U A39G G84C A106G A120U G152A was ≤ -4.2

Value of polymerase ribozyme fitness (log ratio) reported for the variant A41C U53A U135A is -1.07

Sample A23C C35A C36G C54A A137G U148G ; polymerase ribozyme fitness (log ratio) observed: ≤ -4.2

Form field polymerase ribozyme fitness (log ratio), entry C18G C35A C76U G83C G84U G88A G141U : ≤ -4.2

The value of polymerase ribozyme fitness (log ratio) measured for the variant A52C C85U turned out to be -1.81

U61G G71U C87U G143A yielded polymerase ribozyme fitness (log ratio) of ≤ -4.2

Form field polymerase ribozyme fitness (log ratio), entry A47C A107U C108A : ≤ -4.2

Noted for C5A C14G A22G A49C G50U G58C : its polymerase ribozyme fitness (log ratio) reads -4.18

polymerase ribozyme fitness (log ratio) reported for this variant C8U C18G C38A C76U U78C A106U A110C C132G U135C U144C U148A C149G : ≤ -4.2

The value of polymerase ribozyme fitness (log ratio) measured for the variant A16C C51U C87G C118G G133U turned out to be ≤ -4.2

// polymerase ribozyme fitness (log ratio) value for C85U C99G : -1.07

Lab note: C32U U45A C54A G84A C85A G92A C93A gave polymerase ribozyme fitness (log ratio) of ≤ -4.2

Reported polymerase ribozyme fitness (log ratio) for G67A C76A was -4.16

Recorded result, A52G C57A C79U C85A C116U A122G , polymerase ribozyme fitness (log ratio): ≤ -4.2

get_value(item= A23U G42U G58U C75U U148G , readout=polymerase ribozyme fitness (log ratio)) returns ≤ -4.2

polymerase ribozyme fitness (log ratio) measured on A39U U53A = -2.91

polymerase ribozyme fitness (log ratio) measured on A19C G92U = 0.745

Record C10G C54U U55A C79G C93U A98G C116G A122U . Reported polymerase ribozyme fitness (log ratio): ≤ -4.2

// sample C35G C63A C93U , its polymerase ribozyme fitness (log ratio) was -4.16

Recorded result, U13C C18G A21U A40C U53G A60U U61A G94U G100A G126A , polymerase ribozyme fitness (log ratio): ≤ -4.2

Briefly, polymerase ribozyme fitness (log ratio) measured for U6C G117C : -0.247

Form field polymerase ribozyme fitness (log ratio), entry U31G A89G C95U : -1.41

The reported value for C10A C63U G67A U77C G92A U127C U135G in terms of polymerase ribozyme fitness (log ratio) is ≤ -4.2

The recorded polymerase ribozyme fitness (log ratio) for U55A U146G is -0.637

Record C14U C35U G84U C131U , field polymerase ribozyme fitness (log ratio): -3.79

Measured polymerase ribozyme fitness (log ratio), C114A C132U G133C : -3.96

polymerase ribozyme fitness (log ratio) reported for this variant U15C G84A A106G G124A : -0.149

// polymerase ribozyme fitness (log ratio) value for G74A G141A : -2.42

Note to self: polymerase ribozyme fitness (log ratio) recorded for C57U C85U U102A C114A was -3.9
